Biological target: T1, orthogonal hCD122 receptor (hoRb), hCD122 with H133D and Y134F (human, UniProt P14784 27-550)
T1 sequence: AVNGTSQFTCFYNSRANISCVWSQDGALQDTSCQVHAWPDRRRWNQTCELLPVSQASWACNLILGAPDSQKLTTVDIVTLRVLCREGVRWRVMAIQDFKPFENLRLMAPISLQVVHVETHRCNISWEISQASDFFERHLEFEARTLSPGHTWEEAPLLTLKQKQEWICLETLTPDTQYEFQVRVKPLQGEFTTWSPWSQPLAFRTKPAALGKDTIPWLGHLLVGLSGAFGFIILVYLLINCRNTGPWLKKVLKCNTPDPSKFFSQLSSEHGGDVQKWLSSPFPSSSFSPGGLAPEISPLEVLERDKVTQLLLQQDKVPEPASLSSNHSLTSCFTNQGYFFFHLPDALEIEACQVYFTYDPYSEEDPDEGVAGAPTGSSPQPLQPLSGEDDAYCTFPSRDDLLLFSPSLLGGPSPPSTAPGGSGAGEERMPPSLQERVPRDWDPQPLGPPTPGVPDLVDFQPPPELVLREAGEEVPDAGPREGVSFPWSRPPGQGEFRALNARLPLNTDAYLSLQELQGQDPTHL
Experiment: cell-based or functional assay
Can you tell me 3F8 Ortho Proliferation Signal 1:50 for the items I'm about to list?
Answer in cts/min, number only, no unit symbol.

I am curious: what 3F8 Ortho Proliferation Signal 1:50 value has been reported for SQVLSA (ligand) APTSSSTKKTQLQLSQLLVLLSAILNGINNYKNPKLTRMLTFKFYMPKKATELKHLQCLEEELKPLEEVLNLAQSKNFHLRPRDLISNINVIVLELKGSETTFMCEYADETATIVEFLNRWITFCQSIISTLT ? 4060

I am curious: what 3F8 Ortho Proliferation Signal 1:50 value has been reported for SQVLLA (ligand) APTSSSTKKTQLQLSQLLVLLLAILNGINNYKNPKLTRMLTFKFYMPKKATELKHLQCLEEELKPLEEVLNLAQSKNFHLRPRDLISNINVIVLELKGSETTFMCEYADETATIVEFLNRWITFCQSIISTLT ? 3150

I am curious: what 3F8 Ortho Proliferation Signal 1:50 value has been reported for ΔH16, S_VLKA (ligand) APTSSSTKKTQLQLSLLVLLKAILNGINNYKNPKLTRMLTFKFYMPKKATELKHLQCLEEELKPLEEVLNLAQSKNFHLRPRDLISNINVIVLELKGSETTFMCEYADETATIVEFLNRWITFCQSIISTLT ? 1670

I am curious: what 3F8 Ortho Proliferation Signal 1:50 value has been reported for SQVLKW (ligand) APTSSSTKKTQLQLSQLLVLLKWILNGINNYKNPKLTRMLTFKFYMPKKATELKHLQCLEEELKPLEEVLNLAQSKNFHLRPRDLISNINVIVLELKGSETTFMCEYADETATIVEFLNRWITFCQSIISTLT ? 20500

I am curious: what 3F8 Ortho Proliferation Signal 1:50 value has been reported for SQVLNA (ligand) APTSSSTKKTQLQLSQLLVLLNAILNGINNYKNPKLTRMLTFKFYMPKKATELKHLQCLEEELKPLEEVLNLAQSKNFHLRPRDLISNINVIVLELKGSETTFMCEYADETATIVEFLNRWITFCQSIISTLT ? 19100

I am curious: what 3F8 Ortho Proliferation Signal 1:50 value has been reported for ΔD20, SQV_KA (ligand) APTSSSTKKTQLQLSQLLVLKAILNGINNYKNPKLTRMLTFKFYMPKKATELKHLQCLEEELKPLEEVLNLAQSKNFHLRPRDLISNINVIVLELKGSETTFMCEYADETATIVEFLNRWITFCQSIISTLT ? 1370

I am curious: what 3F8 Ortho Proliferation Signal 1:50 value has been reported for SQVLVA (ligand) APTSSSTKKTQLQLSQLLVLLVAILNGINNYKNPKLTRMLTFKFYMPKKATELKHLQCLEEELKPLEEVLNLAQSKNFHLRPRDLISNINVIVLELKGSETTFMCEYADETATIVEFLNRWITFCQSIISTLT ? 1850
